From: paper PMC11164251

- target.of.assay: T1, ScTFIIS LW domain (residue 1–81) I69A (S. cerevisiae, UniProt P07273 1-81, I69A)
- T1 sequence (looked up): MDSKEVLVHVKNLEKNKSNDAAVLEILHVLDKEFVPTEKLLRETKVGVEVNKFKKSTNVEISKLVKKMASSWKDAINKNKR
- test.name: ITC
pKd: −log10 of the molar value.
attribute.measured: pKd

INSERT INTO measurements (binder, meas_value) VALUES
  ('EEDAELDDLFGDDND (peptide, UniProt P38439 54-68, looked up) [ScLeo1 peptide (residue 54–68) containing the LFG motif]', 4.36);
